# ASSAY SUMMARY: Compound pharmacokinetics (systemic exposure) in rats
# Assay type: in vivo, rat
# MEASUREMENT CONTEXT: plasma; rat Male, 30 mg/kg, Day 10, mean (SE), N 3
RECORDED METRIC: Cmax (ng/mL)
I only need the number, in ng/mL, no unit after it.

### Prompt Could you please provide reported Cmax for CCOc1cc2ncc(C#N)c(Nc3ccc(OCc4ccccn4)c(Cl)c3)c2cc1NC(=O)/C=C/CN(C)C [free base] ? Thanks!
### Response 1650

----------
# ASSAY SUMMARY: Compound pharmacokinetics (systemic exposure) in rats
# Format: in vivo, rat
# MEASUREMENT CONTEXT: plasma, oral; rat Male, 5 mg/kg, Day 28, mean (SE), N 3
RECORDED METRIC: Cmax
Answer by giving the amount and then stating its unit.

### Prompt Could you please provide reported Cmax for CCOc1cc2ncc(C#N)c(Nc3ccc(OCc4ccccn4)c(Cl)c3)c2cc1NC(=O)/C=C/CN(C)C.O=C(O)/C=C\C(=O)O [Maleate salt] ? Thanks!
### Response 1200 ng/mL

----------
# ASSAY SUMMARY: Compound pharmacokinetics (systemic exposure) in rats
# Assay type: in vivo, rat
# MEASUREMENT CONTEXT: plasma; rat Female, 15 mg/kg, Day 28, mean (SE), N 3
RECORDED METRIC: Cmax (ng/mL)
I only need the number, in ng/mL, no unit after it.

### Prompt Could you please provide reported Cmax for CCOc1cc2ncc(C#N)c(Nc3ccc(OCc4ccccn4)c(Cl)c3)c2cc1NC(=O)/C=C/CN(C)C.O=C(O)/C=C\C(=O)O [Maleate salt] ? Thanks!
### Response 3560

----------
# ASSAY SUMMARY: physchem
# MEASUREMENT CONTEXT: aqueous with cosolvent or surfactant or cyclodextrin
RECORDED METRIC: solubility (µg/mL)
I only need the number, in µg/mL, no unit after it.

### Prompt Could you please provide reported solubility for CCOc1cc2ncc(C#N)c(Nc3ccc(OCc4ccccn4)c(Cl)c3)c2cc1NC(=O)/C=C/CN(C)C [free base] ? Thanks!
### Response 50

----------
# ASSAY SUMMARY: Compound pharmacokinetics (systemic exposure) in rats
# Assay type: in vivo, rat
# MEASUREMENT CONTEXT: plasma, oral; rat Female, 5 mg/kg, Day 28, mean (SE), N 3; read-out: AUC0-24
RECORDED METRIC: AUC(0-t) (µg·h/mL)
I only need the number, in µg·h/mL, no unit after it.

### Prompt Could you please provide reported AUC(0-t) for CCOc1cc2ncc(C#N)c(Nc3ccc(OCc4ccccn4)c(Cl)c3)c2cc1NC(=O)/C=C/CN(C)C.O=C(O)/C=C\C(=O)O [Maleate salt] ? Thanks!
### Response 9.53

----------
# ASSAY SUMMARY: Compound pharmacokinetics (systemic exposure) in rats
# Type: in vivo, rat
# MEASUREMENT CONTEXT: plasma; rat Male, 20 mg/kg, Day 1, mean (SE), N 4; footnote a: AUC0-∞
RECORDED METRIC: AUC(0-inf)
Answer by giving the amount and then stating its unit.

### Prompt Could you please provide reported AUC(0-inf) for CCOc1cc2ncc(C#N)c(Nc3ccc(OCc4ccccn4)c(Cl)c3)c2cc1NC(=O)/C=C/CN(C)C [free base] ? Thanks!
### Response 8510 ng·h/mL
